Recorded measurements of EI, one per entry
target_entity: Sigma non-opioid intracellular receptor 1 (Rattus norvegicus)
experiment_description: Eudisimic index was determined for the compound against sigma receptor
Number, no unit, nothing else.

Sample records with EI:
[[record]]
structure_string = "Oc1cccc([C@H]2CCCNC2)c1"
observed_property = "EI"
reported_measurement = 0.53

[[record]]
structure_string = "Oc1cccc([C@H]2CCCN(CCc3ccccc3)C2)c1"
observed_property = "EI"
reported_measurement = 0.3

[[record]]
structure_string = "CCCCN1CCC[C@H](c2cccc(O)c2)C1"
observed_property = "EI"
reported_measurement = 0.54

[[record]]
structure_string = "CCCN1CCC[C@H](c2cccc(O)c2)C1"
observed_property = "EI"
reported_measurement = 0.71


Could you now look at the following compound, please?
For `CN1CCC[C@H](c2cccc(O)c2)C1` , what is its reported EI?
0.71
